# System: ALOMY
# testDescription: Pre-emergence action at 320 g/ha against ALOMY
# Assay type: in vivo, Alopecurus myosuroides
# recordedConditions: scored visually after about 3 weeks vs untreated controls (100% = plants have died)
Exercise: for every item that follows, state its recorded Pre-emergence action at 320 g/ha against ALOMY in %.
Please don't drop the unit; write it after the number.

Prompt line: Please supply the value of reported Pre-emergence action at 320 g/ha against ALOMY in % for the item "COC(=O)CNC(=O)COc1nn(-c2ccccc2F)c(-c2ccc(F)nc2)c1Br"
Response line: 100%

Prompt line: Name the recorded Pre-emergence action at 320 g/ha against ALOMY in % of the item "COC(=O)COc1nn(-c2ccccc2F)c(-c2cncc(F)c2)c1Br" in your answer.
Response line: 100%

Prompt line: Read the entry "COCCOC(=O)COc1nn(-c2ccccc2F)c(-c2ccc(F)nc2)c1Br" and write its reported Pre-emergence action at 320 g/ha against ALOMY in %.
Response line: 100%

Prompt line: Given "CCOC(=O)COc1nn(-c2ccccc2C)c(-c2ccc(F)nc2)c1Br" , respond with its Pre-emergence action at 320 g/ha against ALOMY in %.
Response line: 100%

Prompt line: Tell me Pre-emergence action at 320 g/ha against ALOMY in % reported for O=C(COc1nn(-c2ccccc2F)c(-c2ccc(F)nc2)c1Br)OCC1CCOC1 (stereo not drawn)
Response line: 100%

Prompt line: Fill in reported Pre-emergence action at 320 g/ha against ALOMY in % for this entry: "COC(=O)[C@@H](C)Oc1nn(-c2ccccc2)c(-c2cncnc2)c1Br"
Response line: 90%

Prompt line: Quick one: give measured Pre-emergence action at 320 g/ha against ALOMY in % for "O=C(O)COc1nn(-c2ccccc2F)c(-c2ccnc(F)c2)c1Br"
Response line: 100%

Prompt line: Retrieve Pre-emergence action at 320 g/ha against ALOMY in % measured for "CCOC(=O)COc1nn(-c2ccccc2F)c(-c2ccc(F)nc2)c1C" and print it.
Response line: 100%

Prompt line: Specify reported Pre-emergence action at 320 g/ha against ALOMY in % for the compound shown: O=C(O)CNC(=O)C(F)Oc1nn(-c2ccccc2F)c(-c2ccc(F)nc2)c1Br (stereo not drawn)
Response line: 90%

Prompt line: Name the recorded Pre-emergence action at 320 g/ha against ALOMY in % of the compound listed here: "CCOC(=O)COc1nn(-c2ccccc2F)c(-c2ccc(F)nc2)c1I"
Response line: 100%

Prompt line: Determine its reported Pre-emergence action at 320 g/ha against ALOMY in %: "CCOC(=O)CN(C)S(=O)(=O)NC(=O)COc1nn(-c2ccccc2F)c(-c2cncc(F)c2)c1Br"
Response line: 100%

Prompt line: Please list Pre-emergence action at 320 g/ha against ALOMY in % recorded for the compound COC(=O)C(C)Oc1nn(-c2ccccc2F)c(-c2ccc(F)nc2)c1Br (stereo not drawn)
Response line: 100%

Prompt line: Determine its reported Pre-emergence action at 320 g/ha against ALOMY in %: COC(=O)CNC(=O)C(F)Oc1nn(-c2ccccc2F)c(-c2ccc(F)nc2)c1Br (stereo not drawn)
Response line: 90%

Prompt line: Output Pre-emergence action at 320 g/ha against ALOMY in % of "O=C(O)CNC(=O)COc1nn(-c2ccccc2F)c(-c2ccc(F)nc2)c1Br"
Response line: 100%

Prompt line: Let me know recorded Pre-emergence action at 320 g/ha against ALOMY in % for O=C(COc1nn(-c2ccccc2F)c(-c2ccnc(F)c2)c1Br)OCC1CCOC1 (stereo not drawn) , thanks.
Response line: 100%

Prompt line: Report Pre-emergence action at 320 g/ha against ALOMY in %, nothing else, for this compound: "C[C@@H](Oc1nn(-c2cc(F)ccc2F)c(-c2cncc(F)c2)c1Br)C(=O)O"
Response line: 100%

Prompt line: Name the recorded Pre-emergence action at 320 g/ha against ALOMY in % of the compound listed here: "O=C(COc1nn(-c2ccccc2F)c(-c2ccc(F)nc2)c1Br)O[C@H]1CCOC1=O"
Response line: 100%

Prompt line: Name the recorded Pre-emergence action at 320 g/ha against ALOMY in % of the item CCOC(=O)C(C)Oc1nn(-c2ccccc2F)c(-c2ccc(F)nc2)c1I (stereo not drawn) in your answer.
Response line: 100%

Provenance of the data: patent US12180187B2
